B1: LINE1-full (parent)
chain: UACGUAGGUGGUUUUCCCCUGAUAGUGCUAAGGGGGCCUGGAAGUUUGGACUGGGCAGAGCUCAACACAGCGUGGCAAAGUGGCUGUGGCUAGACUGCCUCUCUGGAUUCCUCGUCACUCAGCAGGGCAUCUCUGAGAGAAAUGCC

Variants of: B1
TEST DETAILS: self-cleavage, relative activity (ratio to wild type); higher = more cleavage; in vitro, sequencing; the parent is a self-cleaving ribozyme
Label satisfied for high-side self-cleavage (at or above 1) and not satisfied for low-side self-cleavage (below it).

Record excerpt, results attached:
>>> df
           var  assigned_label
0    U62G A77G   not satisfied
1  U104A U112A       satisfied
2   U26A U112C       satisfied
3   C56U A117G   not satisfied

Determine whether this variant has self-cleavage no lower than 1: A31G A92G
not satisfied

Determine whether this variant has self-cleavage no lower than 1: U52A A121G
satisfied

Determine whether this variant has self-cleavage no lower than 1: U73A U134C
satisfied

Determine whether this variant has self-cleavage no lower than 1: U130A U132C
satisfied
